Test system: influenza A(H1N1)
Conditions: dog

compound: Nc1ccn([C@@H]2OC(CO)=C[C@H]2O)c(=O)n1 [AB21650, 3′-deoxy-3′,4′-didehydro cytidine]
CC50: > 2000 µM

###

Assay: in vivo
Conditions: male, Sprague-Dawley, rat, po, 10 mg/kg
// reported concentration at 1 h per item
outcome_measure: concentration at 1 h (nM)

smiles_data: CCCCCCCCCCCCCCCCOCCCOP(=O)(O)CO[C@H](CO)Cn1ccc(N)nc1=O
outcome_measure: concentration at 1 h
endpoint_unit: nM
recorded_number: 25
//
smiles_data: CCCCCCCCCCCCCCCCOCCCOP(=O)(O)OCC1=C[C@H](O)[C@H](n2cnc3c(=O)[nH]c(N)nc32)O1
outcome_measure: concentration at 1 h
endpoint_unit: nM
recorded_number: 58

###

// reported SI50 (SI) per item
System: Tacaribe virus (TCRV, TRVL-11573)
Design: unit not given beside the values

molecule: CC(C)(C)C(=O)SCCOP(=O)(OCCSC(=O)C(C)(C)C)OCC1=CC(O)C(n2ccc(=O)[nH]c2=O)O1 (stereo not drawn) [SATE-ddhU]
SI50 (SI): 0
//
molecule: CC(C)(C)C(=O)SCCOP(=O)(OCCSC(=O)C(C)(C)C)OCC1=CC(O)C(n2cnc3c(=O)[nH]c(N)nc32)O1 (stereo not drawn) [SATE-ddhG]
SI50 (SI): 0
//
molecule: CC(C)(C)C(=O)SCCOP(=O)(OCCSC(=O)C(C)(C)C)OCC1=CC(O)C(n2ccc(N)nc2=O)O1 (stereo not drawn) [SATE-ddhC]
SI50 (SI): 0
//
molecule: CC(C)(C)C(=O)SCCOP(=O)(OCCSC(=O)C(C)(C)C)OCC1=CC(O)C(n2cnc3c(N)ncnc32)O1 (stereo not drawn) [SATE-ddhA]
SI50 (SI): 0
//
molecule: CC(C)(C)C(=O)SCCOP(=O)(OCCSC(=O)C(C)(C)C)OCC1=CC(O)C(n2cnc3c(=O)[nH]cnc32)O1 (stereo not drawn) [SATE-ddhI]
SI50 (SI): 0
//
molecule: NC(=O)c1ncn([C@@H]2O[C@H](CO)[C@@H](O)[C@H]2O)n1 [Ribavirin, Ribavirin (Virazole), reference compound]
SI50 (SI): >190

###

System: Epstein-Barr virus (EBV), Akata strain
Parameters: unit not given beside the values
outcome_measure: SI90

molecule: CC(C)(C)C(=O)SCCOP(=O)(OCCSC(=O)C(C)(C)C)OCC1=CC(O)C(n2ccc(N)nc2=O)O1 (stereo not shown) [SATE-ddhC]
tested_system: Epstein-Barr virus (EBV), Akata strain
result: <4
--
molecule: C[C@H](Cn1cnc2c(N)ncnc21)OCP(=O)(O)O [TNV, reference compound]
tested_system: Epstein-Barr virus (EBV), Akata strain
result: 1
--
molecule: CC(C)(C)C(=O)SCCOP(=O)(OCCSC(=O)C(C)(C)C)OCC1=CC(O)C(n2ccc(=O)[nH]c2=O)O1 (stereo not shown) [SATE-ddhU]
tested_system: Epstein-Barr virus (EBV), Akata strain
result: <4
--
molecule: CC(C)(C)C(=O)SCCOP(=O)(OCCSC(=O)C(C)(C)C)OCC1=CC(O)C(n2cnc3c(=O)[nH]cnc32)O1 (stereo not shown) [SATE-ddhI]
tested_system: Epstein-Barr virus (EBV), Akata strain
result: >2

###

Experiment: in vivo
Conditions: male, Sprague-Dawley, rat, po, 10 mg/kg, t1/2

compound: CCCCCCCCCCCCCCCCOCCCOP(=O)(O)CO[C@H](CO)Cn1ccc(N)nc1=O [BCV, Brincidofovir]
endpoint_unit: h
half-life: 4.2

###

Assay: in vivo
Conditions: male, Sprague-Dawley, rat, po, 10 mg/kg, tmax
// reported Tmax per item
outcome_measure: Tmax (h)

compound: CCCCCCCCCCCCCCCCOCCCOP(=O)(O)CO[C@H](CO)Cn1ccc(N)nc1=O [BCV, Brincidofovir]
recorded_number: 4
--
compound: CCCCCCCCCCCCCCCCOCCCOP(=O)(O)OCC1=C[C@H](O)[C@H](n2cnc3c(=O)[nH]c(N)nc32)O1 [AB23040]
recorded_number: 2

###

Test: in vivo
Conditions: male, Sprague-Dawley, rat, iv, 10 mg/kg, MRTInf

compound: CCCCCCCCCCCCCCCCOCCCOP(=O)(O)CO[C@H](CO)Cn1ccc(N)nc1=O [BCV, Brincidofovir]
endpoint_unit: h
MRT inf: 1.9

###

Assay: in vivo
Conditions: male, Sprague-Dawley, rat, iv, 10 mg/kg
// reported concentration at 1 h per item

smiles_data: CCCCCCCCCCCCCCCCOCCCOP(=O)(O)CO[C@H](CO)Cn1ccc(N)nc1=O
endpoint_unit: µM
concentration at 1 h: 3.21
//
smiles_data: CCCCCCCCCCCCCCCCOCCCOP(=O)(O)OCC1=C[C@H](O)[C@H](n2cnc3c(=O)[nH]c(N)nc32)O1
endpoint_unit: µM
concentration at 1 h: 3.26

###

Tested on: Influenza B
Conditions: dog

compound: Nc1ccn([C@@H]2OC(CO)=C[C@H]2O)c(=O)n1 [AB21650, 3′-deoxy-3′,4′-didehydro cytidine]
CC50: > 2000 µM

###

Experiment: in vivo
Conditions: male, Sprague-Dawley, rat, po, 10 mg/kg

compound: CCCCCCCCCCCCCCCCOCCCOP(=O)(O)CO[C@H](CO)Cn1ccc(N)nc1=O [BCV, Brincidofovir]
concentration at 8 h: 11 nM
--
compound: CCCCCCCCCCCCCCCCOCCCOP(=O)(O)OCC1=C[C@H](O)[C@H](n2cnc3c(=O)[nH]c(N)nc32)O1 [AB23040]
concentration at 8 h: 24 nM

###

Test: in vitro
Conditions: African green monkey

compound: Nc1nc2c(ncn2[C@@H]2OC(CO)=CC2O)c(=O)[nH]1 (stereo partly shown) [AB21651]
CC50: > 2000 µM

###

Test: in vitro
Details: human, s9
// reported microsomal CLint at 1 μM per item

compound: CCCCCCCCCCCCCCCCOCCCOP(=O)(O)OCC1=C[C@H](O)[C@H](n2cnc3c(=O)[nH]c(N)nc32)O1
microsomal CLint at 1 μM: 7 µL/min/mg
//
compound: CCCCCCCCCCCCCCCCOCCCOP(=O)(O)OCC1=CC(O)C(n2ccc(=O)[nH]c2=O)O1 (centres unmarked)
microsomal CLint at 1 μM: 5.2 µL/min/mg

###

// reported CC50 per item
Tested on: respiratory syncytial virus (RSV, A2)

compound: NC(=O)c1ncn([C@@H]2O[C@H](CO)[C@@H](O)[C@H]2O)n1 [Ribavirin, Ribavirin (Virazole), reference compound]
CC50: 310 µg/mL
--
compound: CC(C)(C)C(=O)SCCOP(=O)(OCCSC(=O)C(C)(C)C)OCC1=CC(O)C(n2cnc3c(N)ncnc32)O1 (stereo not drawn) [SATE-ddhA]
CC50: 170 µM
--
compound: CC(C)(C)C(=O)SCCOP(=O)(OCCSC(=O)C(C)(C)C)OCC1=CC(O)C(n2cnc3c(=O)[nH]c(N)nc32)O1 (stereo not drawn) [SATE-ddhG]
CC50: > 1000 µM

###

// reported concentration at 8 h per item
Experiment: in vivo
Details: male, Sprague-Dawley, rat, iv, 10 mg/kg

compound: CCCCCCCCCCCCCCCCOCCCOP(=O)(O)CO[C@H](CO)Cn1ccc(N)nc1=O [BCV, Brincidofovir]
concentration at 8 h: 9 nM
--
compound: CCCCCCCCCCCCCCCCOCCCOP(=O)(O)OCC1=C[C@H](O)[C@H](n2cnc3c(=O)[nH]c(N)nc32)O1 [AB23040]
concentration at 8 h: 13 nM

###

Experiment: in vitro
Details: human, s9, T1/2

smiles_data: CCCCCCCCCCCCCCCCOCCCOP(=O)(O)OCC1=C[C@H](O)[C@H](n2cnc3c(=O)[nH]c(N)nc32)O1
half-life at 1 µM: 4.69 h

###

System: Rift Valley fever virus (RVFV)
Conditions: RVFV; Vero 76 cells; test compounds

smiles_data: O=c1ccn([C@@H]2OC(CO)=C[C@H]2O)c(=O)[nH]1
EC50: > 1.1 mM

###

Target: UniProtKB P12268

molecule: NC(=O)c1ncn([C@@H]2O[C@H](COP(=O)(O)O)[C@@H](O)[C@H]2O)n1 [RMP, Ribavirin 5′-monophosphate]
tested_system: UniProtKB P12268
endpoint_unit: nM
IC50: 2600

###

// reported microsomal CLint at 1 μM per item
Test: in vitro
Conditions: rat, s9

compound: CCCCCCCCCCCCCCCCOCCCOP(=O)(O)OCC1=C[C@H](O)[C@H](n2cnc3c(=O)[nH]c(N)nc32)O1
microsomal CLint at 1 μM [µL/min/mg]: 5.8
--
compound: CCCCCCCCCCCCCCCCOCCCOP(=O)(O)OCC1=CC(O)C(n2ccc(=O)[nH]c2=O)O1 (centres unmarked)
microsomal CLint at 1 μM [µL/min/mg]: 4

###

Assay: in vitro
Conditions: African green monkey

molecule: Nc1nc2c(ncn2[C@@H]2OC(CO)=CC2O)c(=O)[nH]1 (stereo partly shown)
CC50: > 2000 µM
